- System: 786-0 renal
- test_protocol: NCI tumour cell line growth inhibition, 48 h
Collected TGI values appear next to each entry.
Report the value in µM with no unit label.

Worked examples, 3 molecules total:
COc1cc(CNc2oc(-c3ccccc3)c(-c3ccccc3)c2C#N)cc(CN2CCN(C)CC2)c1O	3.21
Cc1cccc2c1[nH]c(=O)c1c3ccccc3cn21	32.2
CC1=NOC(=O)/C1=C/c1ccc2c(c1)OCO2	46.6

# get_value(readout='TGI', item= "CC(C)(C)OC(=O)N[C@@H](Cc1ccccc1)C(=O)N(Cc1ccccc1)C1(C(=O)NCc2ccccc2)CCN(Cc2ccccc2)CC1" )
43.3

Entry to check: "CCOC(=O)[C@@H](Cc1ccc(CCl)cc1)NC(C)=O"
40.4

Entry to check: "CN1CCN(CCCOc2cc(O)c3c(=O)cc(-c4ccccc4)oc3c2)CC1"
43.3

Entry to check: "CC(=N/NC(=S)N(C)C)/C(=N\NC(=S)N(C)C)c1ccccc1"
4.04

Entry to check: "COC(=O)[C@H](Cc1cn(C)cn1)NC(=O)[C@H](Cc1ccccc1)NC(=O)Nc1cc(C(F)(F)F)cc(C(F)(F)F)c1"
31.9

* * *

- Test system: MDA-MB-231 breast
- test_protocol: NCI tumour cell line growth inhibition, 48 h
Collected TGI values appear next to each entry.

CC(SCc1ccccc1)C(=O)O (stereo not given)	> 100 µM
CCOC(=O)C1=C(C)NC(c2ccco2)=C(C#N)C1c1cccc([N+](=O)[O-])c1 (stereo not given)	4.53 µM
COc1cc2c3c(n(CCCNCCCN)c(=O)c2cc1OC)-c1cc2c(cc1C3=O)OCO2	12.6 µM
Nc1c(N2CCOCC2)c(=O)nc2[nH]/c(=C\c3ccccc3O)c(=O)n12	> 100 µM
CC(=N/NC(=S)N(C)C)/C(=N\NC(=S)N(C)C)c1ccccc1	> 23.8 µM
Cc1cccc2c1CC(Cc1ccccc1C(=O)O)C2=O (stereo not given)	> 100 µM
CC1(C)N=C(N)N=C(N)N1c1cccc(Cl)c1	> 100 µM
CNC(=O)c1cncc(/C=C/c2ccccc2Cl)c1	> 25 µM
CN(C)/N=N/c1nc2c(c(=O)n(C)c(=O)n2C)n1CC1CO1 (stereo not given)	68.1 µM

Would you kindly look at the next entry?
What reported TGI corresponds to CC1(C)C=C(/C=C2/N(S(=O)(=O)C(F)(F)F)C(/C=C3/N(S(=O)(=O)C(F)(F)F)C(C)(C#N)CC3(C)C)=CC2(C)C)N=C1/C=C1/CC(C)(C)C(=O)N1 (stereo not given) on MDA-MB-231 breast?
> 100 µM

* * *

- Tested on: ACHN renal
- test_protocol: NCI tumour cell line growth inhibition, 48 h
measured_metric: TGI

COc1ccc2c(c1)CCc1c-2n[nH]c1-c1[nH]nc2c1CCc1cc(OC)ccc1-2	> 100 µM
CC1=NN2C(=N)/C(=C/c3ccc(F)cc3)C(=O)N=C2S1	> 100 µM
O=C1Nc2cc(F)ccc2C1=O	> 100 µM
CC(C)(C)N=NC(C)(C)N=C=O	> 100 µM
CC(=O)/C(=N\Nc1ccc(Cl)cc1)C(C)=Nc1ccc(C)cc1	61.3 µM
O=c1[nH]c(=O)n(C2CC(O)C(CO)O2)cc1C(F)(F)F (stereo not drawn)	> 100 µM
CS(=O)(=O)N(c1cc(-c2ccc3ncnc(Nc4ccc(F)c(Cl)c4)c3c2)cnc1Cl)S(C)(=O)=O	12.4 µM
CC(C)=C/C(CC(O)(C(F)(F)F)C(F)(F)F)=N\O	> 100 µM

# get_value(readout='TGI', item= COc1ccc2c(c1)CN1CCc3c(cc(OC)c(OC)c3OC)C1C2 (stereo not drawn) )
> 100 µM

Entry to check: "CS(=O)(=O)Nc1ccc2ccccc2c1"
> 100 µM

Entry to check: C=C1C[C@@H]2C[C@@H](C)CC(O)[C@]2(CCCN)C1O (stereo partly drawn)
> 100 µM

Entry to check: COc1ccc(C2c3cc4c(cc3OC(Nc3ccccc3)C2C)OCO4)cc1 (stereo not drawn)
> 100 µM

Entry to check: CCOC(=O)C1=C(C)NC(c2ccco2)=C(C#N)C1c1cccc([N+](=O)[O-])c1 (stereo not drawn)
45.7 µM
